Molecular target: recombinant sEH (Homo sapiens, UniProt P34913)
Sequence (P34913 whole entry): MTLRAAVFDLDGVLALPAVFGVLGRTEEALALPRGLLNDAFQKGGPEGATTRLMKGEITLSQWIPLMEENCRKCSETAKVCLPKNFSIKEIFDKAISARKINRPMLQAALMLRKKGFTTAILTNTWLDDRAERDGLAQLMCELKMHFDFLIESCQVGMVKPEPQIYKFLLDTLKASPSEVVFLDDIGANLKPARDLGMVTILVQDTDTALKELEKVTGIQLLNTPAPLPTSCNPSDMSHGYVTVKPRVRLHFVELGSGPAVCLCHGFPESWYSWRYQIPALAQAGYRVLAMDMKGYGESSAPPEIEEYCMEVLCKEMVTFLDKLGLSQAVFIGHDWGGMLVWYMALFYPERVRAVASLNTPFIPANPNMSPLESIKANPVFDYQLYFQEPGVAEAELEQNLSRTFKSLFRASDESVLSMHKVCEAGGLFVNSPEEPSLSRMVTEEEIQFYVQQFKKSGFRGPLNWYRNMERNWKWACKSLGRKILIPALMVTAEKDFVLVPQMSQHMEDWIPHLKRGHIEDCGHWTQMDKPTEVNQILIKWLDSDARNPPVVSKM
Test: biochemical screening assay for inhibition of soluble epoxide hydrolase (fluorometric, Phome substrate)
pIC50: −log10 of the molar value. Structures can show the parent of a compound that is named as a salt.
MEASURED ATTRIBUTE: pIC50

COMPOUND	pIC50
CC1(c2ccc(O[C@H]3CO[C@H]4[C@@H]3OC[C@@H]4NC(=O)NC3CCCCC3)cc2)CCCCC1	8.40
O=C(NC1CCCCC1)N[C@H]1CO[C@H]2[C@@H]1OC[C@@H]2Oc1ccc(N2CCC(F)(F)CC2)nc1	8.15
Cc1ncccc1O[C@H]1CO[C@H]2[C@@H]1OC[C@@H]2NC(=O)NC1CCC(C)CC1C (stereo partly drawn)	9.00
COc1cccc([C@@H](C)NC(=O)N[C@H]2CO[C@H]3[C@@H]2OC[C@@H]3Oc2ccc(F)cc2)c1	7.42
O=C(NC1CCCCC1)N[C@H]1CO[C@H]2[C@@H]1OC[C@@H]2Oc1ccccc1CN1CCCCC1 [Example 135, trifluoroacetate]	7.70
Cc1cccc(CNC(=O)NC2COC3C(CCc4ccsc4)COC23)c1 (stereo not drawn)	6.84
Cc1ncccc1OC1COC2C(NC(=O)NC34CC5CC(CC(O)(C5)C3)C4)COC12 (stereo not drawn)	7.29
Cc1ccnc(C)c1O[C@H]1CO[C@H]2[C@@H]1OC[C@@H]2NC(=O)NC1CCCCC1	9.00
O=C(NCc1ccc(F)cc1)NC1COC2C(CCc3ccccc3)COC12 (stereo not drawn)	6.85
O=C(Nc1cccc(F)c1)N[C@H]1CO[C@H]2[C@@H]1OC[C@@H]2C#Cc1ccccc1	6.91

(1) Cc1ncccc1O[C@H]1CO[C@H]2[C@@H]1OC[C@@H]2NC(=O)NC[C@@H]1C[C@@H]2C[C@H]([C@H]1C)C2(C)C
(2) O=C(Nc1cccc(C(F)(F)F)c1)N[C@H]1CO[C@H]2[C@@H]1OC[C@@H]2C#Cc1ccsc1
(3) Cc1ncccc1O[C@H]1CO[C@H]2[C@@H]1OC[C@@H]2NC(=O)NCc1cccnc1
(4) C[C@@H](NC(=O)N[C@H]1CO[C@H]2[C@@H]1OC[C@@H]2Oc1ccc(F)cc1)C1CCCCC1
Arrange the 4 compounds from largest to smallest pIC50. Rank the items, then write their labels in that order.
1, 4, 2, 3
(1: 8.52, 4: 7.68, 2: 7.06, 3: 6.34)

---

Biological target: recombinant sEH (Homo sapiens, UniProt P34913)
Construct: made in house; host or cells: Sf9 insect cells
Test: biochemical screening assay for inhibition of soluble epoxide hydrolase (fluorometric, Phome substrate)
pIC50: −log10 of the molar value.
MEASURED ATTRIBUTE: pIC50

Check out these entries, answers already filled in.
MOLECULE	TARGET OF ASSAY	pIC50
O=C(NC1CCCCC1)N[C@H]1CO[C@@H]2[C@@H](CCc3ccccc3)CO[C@@H]21 [Example 349]	recombinant sEH (Homo sapiens, UniProt P34913)	7.43
O=C(NC1CCCCC1)N[C@H]1CO[C@H]2[C@@H]1OC[C@@H]2Oc1cccc(Oc2ccccc2)c1 [Example 27]	recombinant sEH (Homo sapiens, UniProt P34913)	8.52

(1) O=C(N[C@H]1CO[C@H]2[C@@H]1OC[C@@H]2Oc1ccc(F)cc1)N1CCC(F)(F)CC1 [Example 94]
(2) O=C(NC1CCCCC1)N[C@H]1CO[C@H]2[C@@H]1OC[C@@H]2Sc1ccc(Cl)cn1 [Example 63]
(3) O=C(NC1CCCCC1)N[C@H]1CO[C@H]2[C@@H]1OC[C@@H]2S(=O)(=O)C1CCCCC1 [Example 74]
(4) C[C@@H](NC(=O)N[C@H]1CO[C@H]2[C@@H]1OC[C@@H]2Oc1ccc(F)cc1)c1ccccc1 [Example 162]
Falling order of pIC50, please. In plain terms: list the labels in the order you were asked to.
2, 3, 4, 1

(a) O=C(NC1CCCCC1)N[C@H]1CO[C@H]2[C@@H]1OC[C@@H]2Oc1cccc(Oc2ccccn2)c1 [Example 127]
(b) O=C(O)CC[C@H]1CO[C@H]2[C@@H]1OC[C@@H]2NC(=O)NC1CCCCC1 [Example 377]
So which one has the bigger pIC50 here, a or b ? Mark your answer with the label of the selected entry.
a
(a: 8.15, b: 5.53)
